Please find below IC50 data on Cytochrome P450 3A4 (Homo sapiens) compiled from the literature.
Record the value in µM, omitting the unit from your answer.

Known IC50 results, listed for orientation:
[
  {
    "molecule": "O=C(O)CCC(=O)O",
    "display-unit": "µM",
    "observed-value": 12.8
  },
  {
    "molecule": "CCOC(=O)CC(F)(F)C(=O)N1N=C(c2c(-c3ccc(Cl)cc3)c3ccccc3[nH]c2=O)CC1c1ccc(Cl)cc1 (stereo not shown)",
    "display-unit": "µM",
    "observed-value": 7.8
  }
]

Request the reported IC50 associated with O=C(NC(CCN1CC(Oc2nccc3ccccc23)CC1CO)c1ccc(F)cc1)C1CCC(F)(F)CC1 (stereo not shown)
14.5
